- tested_on: Arachidonate 5-lipoxygenase-activating protein (Homo sapiens)
- test_method_notes: Inhibition of FLAP in human whole blood assessed as reduction in calcium ionophore-stimulated LTB4 production preincubated for 4 hrs followed by calcium ionophore stimulation and measured after 20 mins by EIA
- Assay type: tissue-based
measured_parameter: fpIC50

>>> observed("CC(C)(O)CNC(=O)c1cnc(NC(=O)[C@@H]2CCCC[C@H]2C(=O)c2ccc(-c3cc[nH]n3)cc2)cn1 (racemic)")
8.3
>>> observed("Cc1cc(-c2ccc3c([C@@H]4CCCC[C@H]4C(=O)Nc4cn(C)nc4C(N)=O)noc3c2)n[nH]1")
8.5
>>> observed("CC(C)(CNC(=O)[C@@H]1CCCC[C@H]1C(=O)c1ccc(-c2cc[nH]n2)cc1)S(C)(=O)=O")
7.4
>>> observed("Cc1cc(-c2ccc3c([C@@H]4C[C@H]5C[C@H]5C[C@H]4C(=O)Nc4cn(C)nc4C(N)=O)noc3c2)n[nH]1")
8.5
